System: SRD5A2 (gene 6716)
Experiment: CCTE_Deisenroth_5AR_NBTE_ratio: CCTE's 5alpha-reductase NanoBRET Target Engagement Assay - Ratio, Deisenroth Lab (AID 2284322)
Settings: actives raise or lower the signal
Protocol: CCTE_Deisenroth_5AR NBTE (5alpha-reductase NanoBRET Target Engagement Assay) is a cell-based, single-readout assay that uses HEK293T, a human kidney cell line, with measurements taken at 5 hours after chemical dosing in a 384 well plate. This assay includes a primary and secondary screen as well as an autofluorscence screen.CCTE_Deisenroth_5AR NBTE_ratio is one of four assay components calculated from the CCTE_Deisenroth_5AR NBTE assay. […]
Active and inactive are the calls of the source. Rule for the calls: active = hit-call score of the fitted dose curve at least 0.9, where 1 is the maximum; inactive = score below 0.9.
Hi! Could you answer with just one of these? active, inactive

molecule	assayed-target	class
CCCCCCCC(=O)OCC(O)CO (stereo not given)	SRD5A2 (gene 6716)	inactive

Dear colleague, could you share the recorded outcome for CC(CN=Cc1ccccc1O)N=Cc1ccccc1O (stereo not given) when you have a moment?
inactive

Per the assay record, what outcome was assigned to `C[C@H]1O[C@@H](O[C@H]2[C@@H](O)C[C@H](O[C@H]3[C@@H](O)C[C@H](O[C@H]4CC[C@@]5(C)[C@H](CC[C@@H]6[C@@H]5C[C@@H](O)[C@]5(C)[C@@H](C7=CC(=O)OC7)CC[C@]65O)C4)O[C@@H]3C)O[C@@H]2C)C[C@H](O)[C@@H]1O` ?
active

Outcome? `CC(=O)O[C@H]1C[C@@H]2CC[C@@]1(C)C2(C)C`
inactive

Tell me the recorded outcome of this test for `COc1ccc(N=Nc2cc(C)c(N=Nc3ccc(S(=O)(=O)O)cc3)cc2OC)cc1` .
active

Please let me know the test result on file for `O=[N+]([O-])c1ccc(O)cc1C(F)(F)F` .
active

====

Experiment: ATG_AP_1_CIS: Attagene CIS-FACTORIAL HepG2 Assay for human Activator Protein 1 (AP-1) (AID 2282931)
Conditions: HepG2 Attagene cis-factorial AP-1 reporter mRNA; actives raise or lower the signal
Procedure: ATG_CIS is a cell-based, multiplexed-readout assay that uses HepG2, a human liver cell line, with measurements taken at 24 hours after chemical dosing in a 24-well plate.ATG_AP_1_CIS is one of 52 assay component(s) measured or calculated from the ATG_CIS assay. […] This assay endpoint, ATG_AP_1_CIS, was analyzed with bidirectional fitting relative to DMSO as the negative control and baseline of activity. […]
Activity calls are given as the source filed them. Rule for the calls: active = hit-call score of the fitted dose curve at least 0.9, where 1 is the maximum; inactive = score below 0.9.
measurement-type: AC50

# annotated cases, reported AC50 shown
>>> df
                                   molecule  measurement_type            result
0               CCCCN(CCCC)C(=O)N(CCCC)CCCC              AC50  58.5 µM (active)
1         C[Si]1(C)O[Si](C)(C)O[Si](C)(C)O1              AC50          inactive
2  CCCOC(=O)c1c(Cl)c(Cl)c(Cl)c(Cl)c1C(=O)OCCC              AC50   178 µM (active)
3                             C=CCCCCCCCCCC              AC50          inactive
4  CC(CN=Cc1ccccc1O)N=Cc1ccccc1O (configuration not stated)              AC50   100 µM (active)

So what's the measured AC50 for this one? `C=C(C)[C@H]1CC=C(C)C(=O)C1`
inactive

Fill in: AC50 of `CCCCCc1ccco1` is ___
90.9 µM (active)
